# Tested on: normal primary NK cells, pool 1 (3 donors), resting (IL-2 0 ng/mL);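 also: normalised to DMSO-only wells as negative and benzethonium chloride as positive control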
# EXPERIMENT DESCRIPTION: percent inhibition of viability; higher = more inhibition
# APPLIED CONDITIONS: 72 h; 1 nM
EXPERIMENTAL ENDPOINT: percent inhibition of viability

- COMPOUND: "O=C(Nc1ccc2[nH]nc(-c3ccncc3)c2c1)[C@@H]1CCN(CC(=O)N2CCN(c3ccc(-c4ncccn4)cc3)CC2)C1 (max concentration tested 10000 nM)"
  percent inhibition of viability: "4.46%"
- COMPOUND: "COc1ccc(C[C@H](NC(=O)[C@H](C)NC(=O)CN2CCOCC2)C(=O)N[C@@H](Cc2ccccc2)C(=O)C2(C)CO2)cc1 (stereo in doubt) [ONX-0914] (max concentration tested 10000 nM)"
  percent inhibition of viability: "-25.3%"

Proceed to the following item.
Enquiry: Reported percent inhibition of viability for CN1CCN(c2cc(C(=O)Nc3ccc4c(c3)-c3c(c(C(N)=O)nn3-c3ccc(F)cc3)CC4)c(Cl)cn2)CC1 [PHA 408] (max concentration tested 10000 nM) : what is it?
Return: 18.8%
